Tested on: trypsin
Construct: purchased Thermo Fisher
Assay: Stability to agarose-immobilized trypsin (LC/MS)
Type: in vitro ADME
Conditions: isolated enzyme trypsin, pH 7.9
Numbered stars: 1 amine (or outer) side, 2 acyl side, 3 side chain; on linkers, the order of the positions; unused ones are H or OH. Bridge positions count the residues as written; N and C are the ends. Square brackets hold non-standard residues; d marks the D form. Peptide text beside a SMILES is read from it. X1 = C=C(N[*:2])c1nc(-c2nc(-c3nc(C(=O)OC)cs3)ccc2C(=O)[*:1])cs1; NMePhe(4-NO2) = CN[C@@H](Cc1ccc([N+](=O)[O-])cc1)C(=O)O; Tic(7-OH) = O=C(O)[C@@H]1Cc2ccc(O)cc2CN1; X2 = O=C(c1csc([C@H](CO)N[*:1])n1)[*:2]; Aad = N[C@@H](CCCC(=O)O)C(=O)O; Dhb = C/C=C(\N)C(=O)O; Dha = C=C(N)C(=O)O; Sar = CNCC(=O)O
observable: half-life at 15 µM

>  <compound>
C=C1NC(=O)[C@@H]2Cc3ccc(O)cc3CN2C(=O)CN(C)C(=O)/C(=C/C)NC(=O)CN(C)C(=O)[C@H](CCCC(N)=O)NC(=O)[C@H](Cc2c[nH]c3ccccc23)NC(=O)[C@H](Cc2c[nH]c3ccccc23)NC(=O)c2ccc(-c3nc(C(=O)OC)cs3)nc2-c2csc(n2)C(=C)NC(=O)CNC(=O)/C(=C/C)NC(=O)[C@H](Cc2ccc([N+](=O)[O-])cc2)N(C)C(=O)[C@H]([C@@H](C)O)NC(=O)C(=C)NC1=O [wTP4] (WW[Aad](NH2)[Sar][Dhb][Sar][Tic(7-OH)][Dha][Dha]T[NMePhe(4-NO2)][Dhb]G; linker N-C via X1)

>  <half-life at 15 µM>
> 100 h

$$$$
>  <compound>
C=C1NC(=O)[C@@H]2Cc3ccc(O)cc3CN2C(=O)[C@H](CCCNC(=N)N)NC(=O)[C@H](CC(C)C)NC(=O)[C@H](Cc2ccc([N+](=O)[O-])cc2)N(C)C(=O)[C@H](CC(N)=O)NC(=O)[C@H](CC(C)C)NC(=O)[C@H](CCCNC(=N)N)NC(=O)[C@H](CCCC(N)=O)NC(=O)[C@H](C)NC(=O)[C@H](Cc2c[nH]c3ccccc23)NC(=O)c2ccc(-c3nc(C(=O)OC)cs3)nc2-c2csc(n2)C(=C)NC(=O)CNC1=O [hTP13] (WA[Aad](NH2)RLN[NMePhe(4-NO2)]LR[Tic(7-OH)][Dha]G; linker N-C via X1)

>  <half-life at 15 µM>
1.2 h

$$$$

Query: So what half-life at 15 µM did C=C1NC(=O)CN(C)C(=O)[C@H](CC(N)=O)NC(=O)c2csc(n2)[C@H](CO)NC(=O)[C@H](Cc2c[nH]c3ccccc23)NC(=O)[C@H](Cc2c[nH]c3ccccc23)NC(=O)c2ccc(-c3nc(C(=O)OC)cs3)nc2-c2csc(n2)C(=C)NC(=O)[C@H](C)NC(=O)/C(=C/C)NC(=O)[C@@H]2Cc3ccc(O)cc3CN2C(=O)[C@H](Cc2ccc([N+](=O)[O-])cc2)N(C)C(=O)CN(C)C(=O)C(=C)NC1=O [wTP12] (WW[X2]N[Sar][Dha][Dha][Sar][NMePhe(4-NO2)][Tic(7-OH)][Dhb]A; linker N-C via X1) get with trypsin?
Response: > 100 h

Values from paper PMC10979747
